- Measurement target: DRB1*0301 (Homo sapiens, UniProt P01903+P01911, A100K/A102G/A103R/A169T/F55Y/I96L/K41T/L162R/M171V/P40S/Q125H/Q178H/Q39Y/R42S/S66N/T106N/T262R/W38E/Y61H)
- Sequence (P01903 26-254, other chains not shown): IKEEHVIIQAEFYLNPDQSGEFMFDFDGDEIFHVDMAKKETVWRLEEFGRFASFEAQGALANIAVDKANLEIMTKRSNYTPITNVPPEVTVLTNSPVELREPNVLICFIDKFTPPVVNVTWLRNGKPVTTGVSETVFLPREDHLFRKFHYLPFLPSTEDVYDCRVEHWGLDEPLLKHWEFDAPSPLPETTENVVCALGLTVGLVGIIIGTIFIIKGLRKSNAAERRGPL
- Protocol details: biochemical
Measured endpoint: IC50 (nM)
Answer in nM, number only, no unit symbol.

Query: Look up IC50: `CSCC[C@H](NC(=O)[C@H](C)NC(=O)[C@H](CCCCN)NC(=O)[C@@H](N)CCC(N)=O)C(=O)N[C@@H](CCSC)C(=O)N[C@@H](CC(=O)O)C(=O)N[C@@H](CCC(N)=O)C(=O)N[C@H](C(=O)N[C@@H](CCCNC(=N)N)C(=O)N[C@@H](CCC(=O)O)C(=O)N[C@@H](CO)C(=O)N[C@@H](CCCNC(=N)N)C(=O)N[C@@H](CC(N)=O)C(=O)N1CCC[C@H]1C(=O)NCC(=O)O)C(C)C`
Result: 450

---

- Measurement target: DRB1*0405 (Homo sapiens, UniProt P01903+P01911, A100R/A169T/D86S/F76Y/I96L/K127E/L162R/M171V/N62H/P40V/Q125Y/R42H/S133A/S149N/S66Y/V115G/V209L/W38E)
- Protocol details: biochemical
- Assay type: binding
- Condition context: read-out: IC50 nM to purified HLA DRB1*0405
Measured endpoint: IC50 (nM)
Give the value, in units of nM, as a plain number.

The examples below pair each entry with its known result.
{"columns": ["Smiles str", "IC50 [nM]"],
 "data": [
  ["CC[C@H](C)[C@H](NC(=O)[C@H](CC(=O)O)NC(=O)[C@H](CCCCN)NC(=O)[C@H](CC(=O)O)NC(=O)[C@H](CCSC)NC(=O)[C@@H](NC(=O)[C@H](C)NC(=O)[C@H](CCC(N)=O)NC(=O)[C@H](CC(=O)O)NC(=O)[C@H](CCSC)NC(=O)[C@H](CCCNC(=N)N)NC(=O)[C@@H](NC(=O)[C@H](CS)NC(=O)[C@H](CC(C)C)NC(=O)[C@@H](N)CO)[C@@H](C)CC)[C@@H](C)CC)C(=O)O", 82],
  ["CSCC[C@H](NC(=O)[C@H](CO)NC(=O)[C@H](CCCCN)NC(=O)[C@H](C)N)C(=O)N[C@@H](CCC(=O)O)C(=O)N[C@@H](Cc1ccc(O)cc1)C(=O)N[C@@H](CC(=O)O)C(=O)N[C@@H](C)C(=O)N[C@H](C(=O)N[C@@H](C)C(=O)N[C@H](C(=O)N[C@H](C(=O)N[C@@H](Cc1c[nH]cn1)C(=O)N[C@@H](CO)C(=O)N[C@@H](Cc1c[nH]c2ccccc12)C(=O)O)[C@@H](C)O)[C@@H](C)O)C(C)C", 626],
  ["CC[C@H](C)[C@H](NC(=O)[C@H](CCC(=O)O)NC(=O)[C@H](CCC(N)=O)NC(=O)[C@H](CCC(=O)O)NC(=O)[C@@H](NC(=O)[C@H](CCC(=O)O)NC(=O)[C@H](CC(C)C)NC(=O)[C@H](CC(C)C)NC(=O)[C@H](CC(C)C)NC(=O)[C@@H](N)CCC(N)=O)C(C)C)C(=O)N[C@@H](CCCNC(=N)N)C(=O)N[C@H](C(=O)N[C@@H](Cc1ccccc1)C(=O)N[C@@H](CO)C(=O)N[C@@H](Cc1ccccc1)C(=O)O)[C@@H](C)O", 5140]
]}

Moving on to another compound below.
Query: Quick check: IC50 of `CC[C@H](C)[C@H](NC(=O)[C@H](CC(C)C)NC(=O)[C@H](CS)NC(=O)[C@H](CCC(=O)O)NC(=O)[C@@H](N)CCC(=O)O)C(=O)N[C@@H](CC(N)=O)C(=O)N[C@@H](CC(=O)O)C(=O)N1CCC[C@H]1C(=O)N[C@@H](Cc1c[nH]c2ccccc12)C(=O)N[C@H](C(=O)N[C@@H](CC(C)C)C(=O)N[C@@H](CC(C)C)C(=O)N[C@@H](CC(N)=O)C(=O)N[C@@H](C)C(=O)N[C@@H](CO)C(=O)O)C(C)C` ?
Result: 15000

# credit: patent US9511134B2
